The origin of these recorded values is PubChem BioAssay (NCI).

# Test system: PC-3 prostate
# procedureSummary: NCI-60 one-dose screen, 48 h
# appliedConditions: 10 µM
# Experimental: Growth inhibition of the PC-3 human tumor cell line is measured as a screen for anti-cancer activity. Cells are grown in 96 well plates and exposed to the test compound for 48 hours. Compounds are tested at a single concentration, which is 10^-5 M for most compounds. The reported endpoint is percent growth (GI% or GIPRCNT), where numbers from 0 - 100% represent growth inhibition, and numbers from -100% - 0 represent cell death. For example, a value of 40 represents 60% growth inhibition. […]
About 83,000 compounds went through this panel and 20% of them were active in at least one assay; those are over-represented in the sample as a whole. Calls of active or inactive are those of the source. The calls were made as follows: active = growth percent below 10; inactive = the rest.
Outcome codes: active, inactive

> print(dat)
                     compoundstructurestring  assignedcategory
 1  CC(=O)Oc1ccccc1C(=O)[Se]C(=NC(C)C)NC(C)C            active
 2  C[C@H]1[C@H](OC(=O)CCC(=O)Nc2cnccn2)O[C@@H]2OC3(C)CC[C@H]4[C@H](C)CC[C@@H]1[C@@]24OO3          inactive
 3  CC1=C2C(=C[C@@](C)(COP(=O)(Oc3ccccc3)Oc3ccccc3)[C@@H]2O)C(=O)[C@@](C)(O)C12CC2            active
 4  COC(=O)C[C@](O)(CCC(C)C)C(=O)O[C@H]1C(OC)=C[C@@]23CCCN2CCc2cc4c(cc2[C@@H]13)OCO4            active
 5  COc1cc(OC)c(S(=O)(=O)N(CCCl)CCCl)cc1C(=O)/C=C/c1cc(OC)c(OC)c(OC)c1          inactive
 6          N#C[Se]CC(=O)Nc1cccc(C(F)(F)F)c1          inactive
 7  O=C(/C=C/c1ccccc1)c1nc2ccccc2n1Cc1ccc(F)cc1            active
 8        C=CCN=C([Se])NC(=O)c1ccc2c(c1)OCO2          inactive
 9       C#CC[Se]C(=O)c1ccc(C(=O)[Se]CC#C)s1          inactive
10  CC(C)C[C@H](NC(=O)CNC(=O)C[C@H]1O[C@@H]2OC3(C)CC[C@H]4[C@H](C)CC[C@@H]([C@H]1C)[C@@]24OO3)B(O)O            active
11  O=C(/C=C/c1ccco1)c1nc2ccccc2n1Cc1ccc(F)cc1          inactive
12  COC(=O)C[C@](O)(CCC(C)C)C(=O)O[C@@H]1C(OC)=C[C@]23CCCN2CCc2cc4c(cc2[C@H]13)OCO4            active
13  CC12CCC3(CCC(=O)NCCCNc4ccnc5cc(Cl)ccc45)[C@@](C)(OO[C@]3(C)O1)O2          inactive
14  O=C(/C=C/c1ccc(Cl)cc1)c1nc2ccccc2n1Cc1ccc(F)cc1          inactive
15  CC[C@]12C=CCN3CC[C@@]4(c5ccc(OC)cc5N(C)[C@H]4[C@@](O)(C(=O)OC)[C@@H]1OC(=O)CCC[P+](C1CCCCC1)(C1CCCCC1)C1CCCCC1)[C@@H]32            active
16  O=C(/C=C/c1ccco1)c1nc2ccccc2n1Cc1ccc(Br)cc1          inactive

----------
# Tested on: RPMI-8226 leukemia
# procedureSummary: NCI-60 one-dose screen, 48 h (100 = growth as untreated, 0 = no growth, -100 = all killed)
# appliedConditions: 10 µM
About 83,000 compounds went through this panel and 20% of them were active in at least one assay; those are over-represented in the sample as a whole.
Each record here notes measured growth.
experimentalReadout: growth (%)

> print(dat)
                                   compound  reportedresult
1             CCOP(=O)(CC(F)(F)C(F)(F)F)OCC            7.92
2  CCOP(=O)(OCC)C(NC(C)=O)C(=O)SCCN (stereo not drawn)             109
3  COCCOCCOCCOc1ccc(-n2cc(-c3ccc(O[C@H]4O[C@@H]5OC6(C)CC[C@H]7[C@H](C)CC[C@@H]([C@H]4C)[C@@]57OO6)cc3)nn2)cc1            20.9

----------
# System: MDA-MB-468 breast
# procedureSummary: NCI-60 one-dose screen, 48 h (100 = growth as untreated, 0 = no growth, -100 = all killed)
# appliedConditions: 10 µM unless noted
The panel holds about 83,000 compounds, 20% with a hit somewhere; the sample as a whole holds those more often.
Lab note: compare growth against 80%. Equal or greater, write label 1. Smaller, write label 0.

molecule	assignedCategory
CC[C@H](C)[C@H](NC(=O)NC(C)(C)C)C(=O)N(C)[C@H](C[C@@H](OC(C)=O)c1nc(C(=O)N[C@@H](Cc2ccccc2)C[C@H](C)C(=O)OC)cs1)C(C)C	label 0
S=P(NC1CCCCC1)(N1CC1)N1CC1	label 1
CCOC(=O)[C@@H](C)C[C@H](Cc1ccccc1)NC(=O)c1csc([C@@H](C[C@H](C(C)C)N(C)C(=O)[C@@H](NC(=O)[C@H]2C[C@H](O)CCN2C)C(C)C)OC(C)=O)n1	label 0
Cc1cnc(/C=C/C(=O)O)cc1-c1cc2c(cc1C)C(C)(C)CCC2(C)C	label 1
C[Se]/C=C1/C(=O)N(c2c(Cl)cccc2Cl)c2ccccc21	label 0
COC(=O)C1CC2c3ccccc3C1c1ccccc12 (centres undefined)	label 1
CC1=C2C(=C[C@@](C)(COS(C)(=O)=O)[C@@H]2O)C(=O)[C@](C)(O)C12CC2	label 0
CC(=O)Nc1ccc(C=C2C(=O)NC(=O)NC2=O)cc1	label 1
O=[N+]([O-])c1ccc2cnn(CSP(=S)(c3ccccc3)c3ccccc3)c2c1	label 0
COc1ccccc1N1CCN(CCc2c[nH]c3cc4c(cc23)OCO4)CC1	label 1
COC(=O)C[Se]C(=O)c1ccccc1OC(C)=O	label 0
O=C(N/N=C/c1ccc([N+](=O)[O-])o1)c1cc([N+](=O)[O-])cc([N+](=O)[O-])c1O	label 1
N#CC1=C(N)Oc2cc3c(cc2C1c1cccs1)OCO3 (centres undefined)	label 0
C[C@]12C[C@H](O)[C@H]3[C@@H](CCC4=CC(=O)CC[C@@]43C)[C@@H]1CC[C@@H]2O	label 1
COc1ccc(C(=O)c2ccc([As]=O)cc2)cc1 (centres undefined)	label 0
NC(Cc1ccc2c(c1)OCO2)c1ccc2c(c1)OCO2 (centres undefined)	label 1
CC1(C)N=C(N)N=C(N)N1c1cccc(CCCCc2ccc(Cl)c(S(=O)(=O)F)c2)c1	label 0
N#Cc1ccc(Cl)cc1	label 1
CC(C)CCC1(CCO)C(=O)NC(=S)NC1=O	label 1
CCC(CC)(c1ccccc1)C(OC(N)=O)c1ccccc1 (centres undefined)	label 0
COc1cc(/C=C/[N+](=O)[O-])c([N+](=O)[O-])cc1OC	label 0
Cc1ccc(C(=O)NCCCOc2ccc(N)cc2Cl)cc1S(=O)(=O)F	label 1
O=C1CCC(=O)N1SC(Cl)(Cl)Cl	label 1
O=[N+]([O-])c1c(Cl)cc(Cl)c([N+](=O)[O-])c1Cl	label 0
COC(=O)[C@@H](C)C[C@H](Cc1ccc2ccccc2c1)NC(=O)c1csc([C@@H](C[C@H](C(C)C)N(C)C(=O)[C@@H](NC(=O)[C@H]2CCCCN2C)C(C)C)OC(C)=O)n1	label 0
Nc1c(F)cc(-c2nc3cc(F)ccc3[se]2)cc1Br	label 0
C/C(=N/OC(=O)N(C)C)c1cc(Cl)ccc1Cl	label 1
COC1[C@@H]2C[C@H]3C(C)(C)O[C@@](C/C=C(/C)C(=O)O)(C2=O)[C@]32Oc3c(CC=C(C)C)c4c(c(O)c3C(=O)[C@H]12)C=CC(C)(C)O4 (some centres undefined)	label 0

----------
# Tested on: RPMI-8226 leukemia
# procedureSummary: NCI-60 one-dose screen, 48 h (100 = growth as untreated, 0 = no growth, -100 = all killed)
# appliedConditions: 10 µM
This is part of a sample that, as a whole, favours compounds with a hit. Of some 83,000 tested, about 20% had one in any assay.
Each record here notes measured growth.

compound	growth, %
COc1cc2cc(C(=O)N3C[C@@H](CCl)c4c3cc(OC(=O)N3CCN(C)[C@@H]5CSSC[C@H]53)c3ccccc43)[nH]c2c(OC)c1OC	-33.9
CC1=C2C(=C[C@@](C)(COP(=O)(Oc3ccccc3)Oc3ccccc3)[C@@H]2O)C(=O)[C@@](C)(O)C12CC2	9.34
CC[C@]12C=CCN3CC[C@@]4(c5ccc(OC)cc5N(C)[C@H]4[C@@](O)(C(=O)OC)[C@@H]1OC(=O)CCCC[P+](C1CCCCC1)(C1CCCCC1)C1CCCCC1)[C@@H]32	-45
COCCOCCOCCOc1ccc(-n2cc(CCCN(CCNc3ccnc4cc(Cl)ccc34)C(=O)CCC(=O)O[C@@H]3O[C@@H]4OC5(C)CC[C@H]6[C@H](C)CC[C@@H]([C@H]3C)[C@@]46OO5)nn2)cc1	26.3
COc1cc(OC)c(S(=O)(=O)N(CCCl)CCCl)cc1C(=O)/C=C/c1cc(OC)c(OC)c(OC)c1	-24.3
CC[C@]12C=CCN3CC[C@@]4(c5ccc(OC)cc5N(C)[C@H]4[C@@](O)(C(=O)OC)[C@@H]1OC(=O)CCC[P+](c1ccc(F)cc1)(c1ccc(F)cc1)c1ccc(F)cc1)[C@@H]32	24.4
O=C([Se]C1C=CCCC1)c1ccc(C(=O)[Se]C2C=CCCC2)s1 (stereo not given)	-43.1
C#CC[Se]C(=O)c1ccc2n[se]nc2c1	21.3
O=C(/C=C/c1ccc(Cl)cc1)c1nc2ccccc2n1Cc1ccc(F)cc1	-20.2
Cc1c2oc3c(C)ccc(C(=O)N[C@@H]4C(=O)N[C@H](C(C)C)C(=O)N5CCC[C@H]5C(=O)N(C)CC(=O)N(C)[C@@H](C(C)C)C(=O)OC4C)c3nc-2c(C(=O)N[C@@H]2C(=O)N[C@H](C(C)C)C(=O)N3CC(=O)C[C@H]3C(=O)N(C)CC(=O)N(C)[C@@H](C(C)C)C(=O)OC2C)c(N)c1=O (stereo not given in full)	-13.1
O=C(NC([Se])=NC1CCCCC1)c1ccccc1	56.2
COc1ccc2cc([C@H](C)C(=O)[Se]CCC#N)ccc2c1	-17.8
CC[C@@]12CC(C(=O)OC)=C3Nc4cc5c(cc4[C@@]34CCN(C[C@H]3O[C@H]31)[C@@H]24)[C@@H]1[C@H](O5)[C@@H](O)[C@@]2(CC)CC(C(=O)OC)=C3Nc4cc(OC)ccc4[C@@]34CCN1[C@@H]24	0.732
CC[C@]12C=CCN3CC[C@@]4(c5ccc(OC)cc5N(C)[C@H]4[C@@](O)(C(=O)OC)[C@@H]1OC(=O)CCC[P+](C1CCCCC1)(C1CCCCC1)C1CCCCC1)[C@@H]32	-43.4
CC[C@]12C=CCN3CC[C@@]4(c5ccc(OC)cc5N(C)[C@H]4[C@@](O)(C(=O)OC)[C@@H]1OC(=O)CCCC[P+](c1ccc(OC)cc1)(c1ccc(OC)cc1)c1ccc(OC)cc1)[C@@H]32	-68.8
COc1cc(OC)c(S(=O)(=O)N(CCCl)CCCl)cc1C(=O)/C=C/c1ccc(C)cc1	59.9
C=CC[Se]C(=O)c1ccc(C(=O)[Se]CC=C)s1	-26.8
C[C@H]1[C@@H](Oc2ccc(-c3cn(-c4ccnc5cc(Cl)ccc45)nn3)cc2)O[C@@H]2OC3(C)CC[C@H]4[C@H](C)CC[C@@H]1[C@@]24OO3	23
C=CCN=C([Se])NC(=O)c1ccc2c(c1)OCO2	105
O=C(/C=C/c1ccccc1)c1nc2ccccc2n1Cc1ccc(F)cc1	-38
